system: RERF-LC-KJ; experiment: relative viability (nuclei count vs DMSO), 5 days (fraction); higher = more cells survive; settings: first compound 0.4 µM
relative viability strictly under 0.8 means yes (1); at 0.8 or over means no (0).

MOLECULE | CLASSIFICATION
COc1cc(N2CCC(C(N)=O)CC2)ccc1Nc1nc(N)c(Cl)c(Nc2ccccc2S(=O)(=O)C(C)C)n1 [HG-5-88-01] + CC(C)C[C@H](NC(=O)[C@H](Cc1ccccc1)NC(=O)c1cnccn1)B(O)O [Bortezomib] (partner 0.002 µM) | no (0)
Clc1ccc(Nc2nnc(Cc3ccncc3)c3ccccc23)cc1 [Vatalanib] + Nc1nc2[nH]cc(CCc3ccc(C(=O)N[C@@H](CCC(=O)O)C(=O)O)cc3)c2c(=O)[nH]1 [Pemetrexed] (partner 0.2 µM) | yes (1)
Clc1ccc(Nc2nnc(Cc3ccncc3)c3ccccc23)cc1 [Vatalanib] + Nc1ncn([C@H]2C[C@H](O)[C@@H](CO)O2)c(=O)n1 [Decitabine] (partner 2 µM) | no (0)
Clc1ccc(Nc2nnc(Cc3ccncc3)c3ccccc23)cc1 [Vatalanib] + N=C(N)NC(=N)NCCc1ccccc1 [Phenformin] (partner 250 µM) | yes (1)
Clc1ccc(Nc2nnc(Cc3ccncc3)c3ccccc23)cc1 [Vatalanib] + O=C(c1cc(Cc2n[nH]c(=O)c3ccccc23)ccc1F)N1CCN(C(=O)C2CC2)CC1 [Olaparib] (partner 8 µM) | no (0)
Clc1ccc(Nc2nnc(Cc3ccncc3)c3ccccc23)cc1 [Vatalanib] + Cc1nc(NC(=O)N2CCC[C@H]2C(N)=O)sc1-c1ccnc(C(C)(C)C(F)(F)F)c1 [Alpelisib] (partner 2 µM) | yes (1)
COc1cc(N2CCC(C(N)=O)CC2)ccc1Nc1nc(N)c(Cl)c(Nc2ccccc2S(=O)(=O)C(C)C)n1 [HG-5-88-01] + O=C(CCCCCCC(=O)Nc1ccccc1)NO [Vorinostat] (partner 1 µM) | yes (1)
COc1cc(N2CCC(C(N)=O)CC2)ccc1Nc1nc(N)c(Cl)c(Nc2ccccc2S(=O)(=O)C(C)C)n1 [HG-5-88-01] + O=C(c1cc(Cc2n[nH]c(=O)c3ccccc23)ccc1F)N1CCN(C(=O)C2CC2)CC1 [Olaparib] (partner 8 µM) | no (0)
Clc1ccc(Nc2nnc(Cc3ccncc3)c3ccccc23)cc1 [Vatalanib] + CC(=O)c1c(C)c2cnc(Nc3ccc(N4CCNCC4)cn3)nc2n(C2CCCC2)c1=O [Palbociclib] (partner 0.5 µM) | no (0)
COc1cc(N2CCC(C(N)=O)CC2)ccc1Nc1nc(N)c(Cl)c(Nc2ccccc2S(=O)(=O)C(C)C)n1 [HG-5-88-01] + CC(=O)Nc1cccc(-n2c(=O)n(C3CC3)c(=O)c3c(Nc4ccc(I)cc4F)n(C)c(=O)c(C)c32)c1 [Trametinib] (partner 0.02 µM) | yes (1)
Clc1ccc(Nc2nnc(Cc3ccncc3)c3ccccc23)cc1 [Vatalanib] + COc1cc2c(Oc3ccc(NC(=O)C4(C(=O)Nc5ccc(F)cc5)CC4)cc3F)ccnc2cc1OCCCN1CCOCC1 [Foretinib] (partner 0.25 µM) | no (0)
COc1cc(N2CCC(C(N)=O)CC2)ccc1Nc1nc(N)c(Cl)c(Nc2ccccc2S(=O)(=O)C(C)C)n1 [HG-5-88-01] + Nc1ncn([C@H]2C[C@H](O)[C@@H](CO)O2)c(=O)n1 [Decitabine] (partner 2 µM) | yes (1)
C[C@@H]1CN(CC(=O)Nc2ccc3c(c2)Cc2cccc(-c4cc(=O)cc(N5CCOCC5)o4)c2S3)C[C@H](C)O1 + CC(=O)Nc1cccc(-n2c(=O)n(C3CC3)c(=O)c3c(Nc4ccc(I)cc4F)n(C)c(=O)c(C)c32)c1 [Trametinib] (partner 0.02 µM) | yes (1)

====

tested on: LOU-NH91; experiment: relative viability (nuclei count vs DMSO), 5 days (fraction); higher = more cells survive; settings: first compound 0.1265 µM
relative viability strictly under 0.8 means YES; at 0.8 or over means NO.

COMPOUND | CLASSIFICATION
COc1cc(N2CCC(C(N)=O)CC2)ccc1Nc1nc(N)c(Cl)c(Nc2ccccc2S(=O)(=O)C(C)C)n1 [HG-5-88-01] + Nc1nc2[nH]cc(CCc3ccc(C(=O)N[C@@H](CCC(=O)O)C(=O)O)cc3)c2c(=O)[nH]1 [Pemetrexed] (partner 0.2 µM) | YES
Clc1ccc(Nc2nnc(Cc3ccncc3)c3ccccc23)cc1 [Vatalanib] + NC(=O)Nc1cc(-c2cccc(F)c2)sc1C(=O)N[C@H]1CCCNC1 [AZD7762] (partner 0.2 µM) | YES
C[C@@H]1CN(CC(=O)Nc2ccc3c(c2)Cc2cccc(-c4cc(=O)cc(N5CCOCC5)o4)c2S3)C[C@H](C)O1 + C[C@]1(O)C[C@@H](c2nc(-c3ccc4ccc(-c5ccccc5)nc4c3)c3c(N)nccn32)C1 [Linsitinib] (partner 1 µM) | NO
Clc1ccc(Nc2nnc(Cc3ccncc3)c3ccccc23)cc1 [Vatalanib] + Cc1cc(Nc2cc(N3CCN(C)CC3)nc(Sc3ccc(NC(=O)C4CC4)cc3)n2)n[nH]1 [Tozasertib] (partner 0.1 µM) | YES
Clc1ccc(Nc2nnc(Cc3ccncc3)c3ccccc23)cc1 [Vatalanib] + CS(=O)(=O)CCNCc1ccc(-c2ccc3ncnc(Nc4ccc(OCc5cccc(F)c5)c(Cl)c4)c3c2)o1 [Lapatinib] (partner 2 µM) | YES
C[C@@H]1CN(CC(=O)Nc2ccc3c(c2)Cc2cccc(-c4cc(=O)cc(N5CCOCC5)o4)c2S3)C[C@H](C)O1 + O=C(CCCCCCC(=O)Nc1ccccc1)NO [Vorinostat] (partner 1 µM) | NO
C[C@@H]1CN(CC(=O)Nc2ccc3c(c2)Cc2cccc(-c4cc(=O)cc(N5CCOCC5)o4)c2S3)C[C@H](C)O1 + NC(=O)Nc1cc(-c2cccc(F)c2)sc1C(=O)N[C@H]1CCCNC1 [AZD7762] (partner 0.2 µM) | YES

====

test system: NCI-H2170; assay: relative viability (nuclei count vs DMSO), 5 days (fraction); higher = more cells survive; details: first compound 0.8 µM
Here the recorded relative viability is given for each entry.
READOUT_TYPE: relative viability

MOLECULE | TESTED_SYSTEM | READOUT_TYPE | MEASURED_RESULT
CCCCCCCCCCCC1=C(O)C(=O)C=C(O)C1=O [Embelin] + Cc1nc(NC(=O)N2CCC[C@H]2C(N)=O)sc1-c1ccnc(C(C)(C)C(F)(F)F)c1 [Alpelisib] (partner 2 µM) | NCI-H2170 | relative viability | 0.853
CCCCCCCCCCCC1=C(O)C(=O)C=C(O)C1=O [Embelin] + CS(=O)(=O)N1CCN(Cc2cc3nc(-c4cccc5[nH]ncc45)nc(N4CCOCC4)c3s2)CC1 [Pictilisib] (partner 1 µM) | NCI-H2170 | relative viability | 0.325
CCCCCCCCCCCC1=C(O)C(=O)C=C(O)C1=O [Embelin] + CC(=O)Nc1cccc(-n2c(=O)n(C3CC3)c(=O)c3c(Nc4ccc(I)cc4F)n(C)c(=O)c(C)c32)c1 [Trametinib] (partner 0.02 µM) | NCI-H2170 | relative viability | 0.877
CCCCCCCCCCCC1=C(O)C(=O)C=C(O)C1=O [Embelin] + CC(=O)c1c(C)c2cnc(Nc3ccc(N4CCNCC4)cn3)nc2n(C2CCCC2)c1=O [Palbociclib] (partner 0.5 µM) | NCI-H2170 | relative viability | 0.418
CCCCCCCCCCCC1=C(O)C(=O)C=C(O)C1=O [Embelin] + N=C(N)NC(=N)NCCc1ccccc1 [Phenformin] (partner 250 µM) | NCI-H2170 | relative viability | 0.489
CCCCCCCCCCCC1=C(O)C(=O)C=C(O)C1=O [Embelin] + COc1cc2c(Oc3ccc(NC(=O)C4(C(=O)Nc5ccc(F)cc5)CC4)cc3F)ccnc2cc1OCCCN1CCOCC1 [Foretinib] (partner 0.25 µM) | NCI-H2170 | relative viability | 1.08
CCCCCCCCCCCC1=C(O)C(=O)C=C(O)C1=O [Embelin] + O=C(c1cc(Cc2n[nH]c(=O)c3ccccc23)ccc1F)N1CCN(C(=O)C2CC2)CC1 [Olaparib] (partner 8 µM) | NCI-H2170 | relative viability | 0.554

====

Here the recorded relative viability is given for each entry.
test system: HCC-827; experiment: relative viability (nuclei count vs DMSO), 5 days (fraction); higher = more cells survive; conditions: first compound 0.3162 µM

COMPOUND | relative viability
CC(C)Oc1cc(Nc2nc(N[C@@H](C)c3ccc(F)cn3)ncc2Cl)n[nH]1 [AZ23] + CC(=O)c1c(C)c2cnc(Nc3ccc(N4CCNCC4)cn3)nc2n(C2CCCC2)c1=O [Palbociclib] (partner 0.5 µM) | 0.471
CC(C)Oc1cc(Nc2nc(N[C@@H](C)c3ccc(F)cn3)ncc2Cl)n[nH]1 [AZ23] + Cc1nc(NC(=O)N2CCC[C@H]2C(N)=O)sc1-c1ccnc(C(C)(C)C(F)(F)F)c1 [Alpelisib] (partner 2 µM) | 1.07
CC(C)Oc1cc(Nc2nc(N[C@@H](C)c3ccc(F)cn3)ncc2Cl)n[nH]1 [AZ23] + Nc1ncn([C@H]2C[C@H](O)[C@@H](CO)O2)c(=O)n1 [Decitabine] (partner 2 µM) | 0.323
CC(C)Oc1cc(Nc2nc(N[C@@H](C)c3ccc(F)cn3)ncc2Cl)n[nH]1 [AZ23] + CS(=O)(=O)CCNCc1ccc(-c2ccc3ncnc(Nc4ccc(OCc5cccc(F)c5)c(Cl)c4)c3c2)o1 [Lapatinib] (partner 2 µM) | 0.21

Origin of the recorded values: the supplement of paper PMC10307832
